# Protocol: MTT-based cell viability assay (EZ-CYTOX)
# Cond: human
Mark Criterion met for CC50 under 40 µM, Criterion not met if at or over.

Some solved cases for reference:
[
  {
    "Compound": "O=C(Nc1ccccc1)Nc1ccc(-c2ccc(C(=O)[C@@H]3CCC[C@H]3C(=O)O)cc2)cc1 [A922500, reference compound]",
    "Assigned Label": "Criterion not met"
  },
  {
    "Compound": "CC(C)NC(=O)c1cccc(NC(=O)/C=C/c2cn(C(=O)OC(C)(C)C)c3ccccc23)c1",
    "Assigned Label": "Criterion met"
  },
  {
    "Compound": "O=C(NCc1ccccn1)c1ccc2nc(COc3ccc(C45CC6CC(CC(C6)C4)C5)cc3)[nH]c2c1 [10i]",
    "Assigned Label": "Criterion met"
  }
]

Find out if reported CC50 for Cc1ccc(CNC(=O)c2cccc(NC(=O)/C=C/c3cn(C(=O)OC(C)(C)C)c4ccccc34)c2)o1 is less than 40 µM
Criterion met

Could you do the same for CC(C)(C)OC(=O)n1cc(/C=C/C(=O)Nc2cccc(C(=O)NCc3ccco3)c2)c2ccccc21 , please?
Criterion met

* * *

# System: HCV NS5A (Huh7.5-Bart79I, genotype 1b)
# Protocol: western blot of HCV NS5A protein in Huh7.5-Bart79I cells
# Format: cell-based, hepatitis C virus
# Cond: Hepatitis C virus, NS5A, read-out: concentration required for reducing 50% of HCV protein expression (EC50)
Readout Label: pEC50
Lab note — pEC50 values are minus log10 of concentrations in M.

Which value of pEC50 has been reported for O=C(NCc1ccco1)c1ccc2[nH]c(COc3ccc(C45CC6CC(CC(C6)C4)C5)cc3)nc2c1 [10j] in the records?
5.39

* * *

# Tested on: HCV NS3 (Huh7.5-J6/JFH1, genotype 2a)
# Protocol: western blot of HCV NS3 protein in Huh7.5-J6/JFH1 cells
# Cond: Hepatitis C virus, GETYPE2A, 72 h, read-out: concentration required for reducing 50% of HCV protein expression (EC50)
# Method: Due to the tight coupling of viral genome replication to its protein expression, inhibition of viral RNA genome replication leads to a subsequent reduction of viral protein expression. […] Western blot analysis of Huh7.5-J6/JFH1 or Bart79I cells treated with 10j was conducted as previously described. Relative amounts of HNF4α proteins were quantified by using an HNF4α mouse monoclonal antibody (M04), clone 4E2 (Abnova) with the dilution of 1:1000.
Readout Label: pEC50
Lab note — pEC50 values are minus log10 of concentrations in M.

Which value of pEC50 has been reported for O=C(NCc1ccco1)c1ccc2[nH]c(COc3ccc(C45CC6CC(CC(C6)C4)C5)cc3)nc2c1 [10j] in the records?
5.44

* * *

# Target Under Test: DGAT-1 (Homo sapiens, UniProt O75907)
# Construct: expressed in transfected cells; host or cells: 293T cells (membrane fraction)
# Sequence (O75907 1-488): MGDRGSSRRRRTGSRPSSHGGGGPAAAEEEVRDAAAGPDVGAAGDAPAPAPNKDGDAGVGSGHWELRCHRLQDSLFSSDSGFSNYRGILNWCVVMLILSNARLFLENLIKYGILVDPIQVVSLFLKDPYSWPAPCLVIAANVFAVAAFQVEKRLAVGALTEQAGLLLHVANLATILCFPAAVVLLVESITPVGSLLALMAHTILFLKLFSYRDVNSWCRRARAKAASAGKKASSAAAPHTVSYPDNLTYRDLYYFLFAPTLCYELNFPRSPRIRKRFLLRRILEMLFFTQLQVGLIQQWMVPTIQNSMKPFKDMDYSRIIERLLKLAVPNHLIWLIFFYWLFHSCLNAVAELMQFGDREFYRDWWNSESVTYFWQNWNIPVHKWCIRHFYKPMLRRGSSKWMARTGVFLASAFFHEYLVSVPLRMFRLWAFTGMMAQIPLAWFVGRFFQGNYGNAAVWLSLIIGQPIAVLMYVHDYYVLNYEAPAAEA
# Protocol: DGAT-1 in vitro assay, membrane fractions of DGAT-1-transfected 293T cells, NBD-palmitoyl CoA, TLC
# Assay type: biochemical
# Cond: DGAT-1 membrane fractions from 293T cells; read-out: IC50, in vitro synthesis of TG by DGAT-1
Readout Label: pIC50
Lab note — pIC50 values are minus log10 of concentrations in M.

Which value of pIC50 has been reported for O=C(NCc1ccco1)c1ccc2[nH]c(COc3ccc(C45CC6CC(CC(C6)C4)C5)cc3)nc2c1 [10j] in the records?
4.76

* * *

# Protocol: MTT-based cell viability assay (EZ-CYTOX)
# Cond: human
Readout Label: CC50

# annotated cases, reported CC50 shown
[
  {
    "Molecule": "O=C(Nc1ccccc1)c1ccc2nc(COc3ccc(C45CC6CC(CC(C6)C4)C5)cc3)[nH]c2c1 [10f]",
    "Readout Label": "CC50",
    "Value Measured": "> 10 µM"
  },
  {
    "Molecule": "CC(C)CCn1cc(/C=C/C(=O)N(NC(=O)c2ccc(F)cc2)C(C)C)c2ccccc21",
    "Readout Label": "CC50",
    "Value Measured": "> 10 µM"
  },
  {
    "Molecule": "O=C(NCc1ccccc1)c1ccc2nc(COc3ccc(C45CC6CC(CC(C6)C4)C5)cc3)[nH]c2c1 [10h]",
    "Readout Label": "CC50",
    "Value Measured": "> 10 µM"
  },
  {
    "Molecule": "CC(C)(C)OC(=O)n1cc(/C=C/C(=O)Nc2cccc(C(=O)N3CCCC3)c2)c2ccccc21",
    "Readout Label": "CC50",
    "Value Measured": "> 10 µM"
  },
  {
    "Molecule": "CC(C)=CCn1cc(/C=C/C(=O)N(NC(=O)c2cccc(F)c2)C(C)C)c2ccccc21",
    "Readout Label": "CC50",
    "Value Measured": "> 10 µM"
  },
  {
    "Molecule": "O=C(c1ccc2nc(COc3ccc(C45CC6CC(CC(C6)C4)C5)cc3)[nH]c2c1)N1CCCCC1 [10e]",
    "Readout Label": "CC50",
    "Value Measured": "> 10 µM"
  },
  {
    "Molecule": "O=C(NCc1ccco1)c1ccc2[nH]c(COc3ccc(C45CC6CC(CC(C6)C4)C5)cc3)nc2c1 [10j]",
    "Readout Label": "CC50",
    "Value Measured": "38.9 µM"
  }
]

API: the following record is the query input.
Which value of CC50 has been reported for CC(C)CCn1cc(/C=C/C(=O)N(NC(=O)c2cccc(F)c2)C(C)C)c2ccccc21 in the records?
> 10 µM

Values were extracted from paper PMC6222871.
